- Tested on: HepG2
- TEST SUMMARY: cell viability relative to DMSO; higher = less toxic
- STUDY CONDITIONS: 72 h; 10 nM
OBSERVATION TYPE: cell viability (%)

COMPOUND: COc1cc(OC2CCN(C)CC2)ccc1Nc1ncc2c(n1)n(C1CCCC1)c(=O)n2C
OBSERVATION TYPE: cell viability
RESULT: 97.9
--
COMPOUND: CN1CCN(C(c2ccccc2)c2ccc(Cl)cc2)CC1 (centres undefined)
OBSERVATION TYPE: cell viability
RESULT: 90.4
--
COMPOUND: CC(C)(C)/[N+]([O-])=C/c1ccc(S(=O)(=O)O)cc1S(=O)(=O)O
OBSERVATION TYPE: cell viability
RESULT: 94.4
--
COMPOUND: C=CCN(C)CCCCCCOc1ccc(C(=O)c2ccc(Br)cc2)c(F)c1
OBSERVATION TYPE: cell viability
RESULT: 98.3
